# Tested on: BRD4-BD1 (Homo sapiens (Human))
# Assay name: BRD4-H4 tetraacetylated peptide inhibition AlphaScreen
# Settings: 15 nM GST-BRD4-BD1 (aa 44-168), 15 nM biotinylated Acetyl-Histone H4 (Lys5, 8, 12, 16) peptide
# Description: Compounds are diluted in serial dilution 1:5 in assay buffer from 10 mM stock in DMSO (100 μM start concentration) in white OptiPlate-384 (PerkinElmer). […] Afterwards, the signal is measured in a PerkinElmer Envision HTS Multilabel Reader using the AlphaScreen protocol from PerkinElmer. […]
Measured IC50 determines class: Low (below 40 nM), Mid (40 nM to below 60 nM), High (60 nM or more)

Below are worked cases with known answers.
- Cc1nnc2c(NC(C)C)cc(-c3cn(C)nc3Cc3ccccc3)nn12: High
- Cc1nnc2c(NC(C)C)cc(-c3cn(C)nc3Oc3ccccn3)nn12: Mid
- Cc1nnc2c(NC3CCN(S(=O)(=O)C4CCN(C)C4)CC3)cc(N(C)Cc3ccccc3)nn12 (stereo not shown): Mid
- CNc1cc(N(C)Cc2ccc(F)cc2)nn2c(C)nnc12: High
- Cc1nnc2c(NC3CCN(C)CC3)cc(-c3cnn(C)c3Cc3ccccc3)nn12: Low
- Cc1nnc2c(NC3CCN(C)CC3)cc(-c3cn(C)nc3Cc3ccccc3)nn12: Low
- Cc1cc(-c2cn(C)nc2Cc2ccccc2)nn2c(C)nnc12: High
- CNc1cc(-c2cn(C)nc2Cc2ccccc2)nn2c(C)nnc12: Low

Pending molecule:
Textbook exercise: identify the category of the molecule given here, CSc1cc(-c2cn(C)nc2Cc2ccccc2)nn2c(C)nnc12 , according to its measured value.
High
